Test: Pharmacokinetic study in rats (intragastric administration and intravenous injection, LC/MS/MS)
Format: in vivo, SD rats
Settings: both sexes, SD, plasma, po; rat, intragastric administration, 2 mg/kg; read-out: Clearance CL/F
attribute-measured: CL/F (mL/min/kg)

I: O=C(O)[C@H]1O[C@@H](N(c2ccc(OC(F)(F)F)cc2)c2ccc3cccc(Cl)c3n2)[C@H](O)[C@@H](O)[C@@H]1O [A, reference compound]
II: O=C(O)[C@H]1O[C@@H](N(c2ccc3c(c2)OC(F)(F)O3)c2ccc3cccc(Cl)c3n2)[C@H](O)[C@@H](O)[C@@H]1O
Task: Returns: the label, I or II , whose recorded CL/F is the lower number. To answer, give the label that identifies your chosen option.
Output: II
(II: 28.7 mL/min/kg, I: 95.7 mL/min/kg)
